# reported FACS signal; entries follow
Molecular target: T1, mouse CLDN6 fused to GFP, expressed on engineered HEK293T cells (mouse, UniProt Q9Z262 1-219)
T1 construct: whole, on cells; also called HEK293T-CLDN6-mGFP Artificial CLDN6+ (mouse); murine CLDN6; not shown: GFP tag
T1 sequence (looked up): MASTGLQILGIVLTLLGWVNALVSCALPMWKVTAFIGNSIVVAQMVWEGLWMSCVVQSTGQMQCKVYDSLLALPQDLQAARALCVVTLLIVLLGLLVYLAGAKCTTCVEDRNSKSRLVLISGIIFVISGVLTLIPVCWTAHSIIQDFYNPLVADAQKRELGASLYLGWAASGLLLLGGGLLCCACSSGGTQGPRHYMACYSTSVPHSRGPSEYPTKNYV
Test: FACS, 293T clone with mouse CLDN6
A bare number is all that is needed in reply.

Request: FACS signal lookup needed for AB4-10 (antibody, V domains shown, Humanized; full-length IgG; see note of AB4-8; also called humanized AB 4-10) VH: QVQLVQSGAEVKKPGASVKMSCKASGYTFTSYTMHWIRQAPGQGQEWIGYINPSSTYTHYIKKFKDRATLTADTSTSTAYMELSSLRSEDTAVYYCSRGELGGFAYWGQGTLVTVSS VL: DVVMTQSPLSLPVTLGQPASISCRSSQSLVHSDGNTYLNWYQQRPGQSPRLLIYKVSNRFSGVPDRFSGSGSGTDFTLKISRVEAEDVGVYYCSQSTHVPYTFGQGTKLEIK , thanks.
Result: 2650

Further cases:
Request: Record request: FACS signal value, item AB4-11 (antibody, V domains shown, Humanized; full-length IgG; see note of AB4-8; also called humanized AB 4-11) VH: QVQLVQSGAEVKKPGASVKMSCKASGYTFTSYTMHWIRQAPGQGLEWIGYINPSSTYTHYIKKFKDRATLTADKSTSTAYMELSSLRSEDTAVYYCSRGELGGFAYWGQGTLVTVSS VL: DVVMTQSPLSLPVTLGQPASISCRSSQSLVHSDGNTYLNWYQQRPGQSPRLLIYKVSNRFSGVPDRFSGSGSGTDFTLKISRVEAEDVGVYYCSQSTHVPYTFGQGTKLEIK
Result: 1230

Request: GET /values?readout=FACS signal&item= AB4-5 (antibody, V domains shown, Humanized; also called humanized AB 4-5) VH: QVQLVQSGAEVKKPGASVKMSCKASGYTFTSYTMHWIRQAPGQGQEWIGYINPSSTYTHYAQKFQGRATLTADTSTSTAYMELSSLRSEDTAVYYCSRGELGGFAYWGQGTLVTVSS VL: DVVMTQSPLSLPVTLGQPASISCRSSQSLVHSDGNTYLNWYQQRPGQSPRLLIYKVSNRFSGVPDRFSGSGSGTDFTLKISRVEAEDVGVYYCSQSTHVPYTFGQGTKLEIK
Result: 2000

Request: Find the recorded FACS signal belonging to AB9-4 (antibody, V domains shown, Humanized; also called humanized AB 9-4) VH: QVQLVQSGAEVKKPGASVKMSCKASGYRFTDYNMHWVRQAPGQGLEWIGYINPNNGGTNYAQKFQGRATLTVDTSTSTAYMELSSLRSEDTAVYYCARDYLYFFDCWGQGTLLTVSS VL: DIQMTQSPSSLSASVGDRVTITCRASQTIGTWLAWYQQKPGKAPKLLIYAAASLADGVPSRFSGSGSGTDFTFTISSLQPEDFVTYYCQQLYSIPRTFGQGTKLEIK and report it.
Result: 1710

Request: Which measured FACS signal value corresponds to AB11-3 (antibody, V domains shown, Humanized; also called humanized AB 11-3) VH: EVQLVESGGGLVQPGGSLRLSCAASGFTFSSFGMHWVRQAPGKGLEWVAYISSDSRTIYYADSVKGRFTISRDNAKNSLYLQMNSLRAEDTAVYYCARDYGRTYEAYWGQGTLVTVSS VL: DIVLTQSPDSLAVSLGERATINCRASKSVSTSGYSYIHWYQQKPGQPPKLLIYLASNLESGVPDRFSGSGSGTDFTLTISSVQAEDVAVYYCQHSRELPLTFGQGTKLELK ?
Result: 5520
